Origin of measurements: patent US20200157194A1

Measured koff values are reported for all entries that follow.
Assayed system: T1, human GREM1 (hGREM1-His; SEQ ID NO: 595) (human, UniProt O60565 25-184)
T1 construct: also called biotin-hGREM1-His; recombinant human GREM1 protein
T1 sequence: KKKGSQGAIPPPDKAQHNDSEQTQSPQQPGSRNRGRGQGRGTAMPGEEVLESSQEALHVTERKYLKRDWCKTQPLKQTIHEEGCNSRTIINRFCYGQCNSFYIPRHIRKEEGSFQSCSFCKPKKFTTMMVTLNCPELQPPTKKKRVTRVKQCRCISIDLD
Procedure details: SPR, Biacore T200, 37 C, mAb captured, hGREM1-His injected;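 further: HBS-EP running buffer containing heparin, association and dissociation phases tracked, KD computed as koff over kon and half-life derived from koff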

Binder	koff [s⁻¹]
H4H6260P (antibody, human IgG4, V domains shown, H4H prefix = human IgG4 Fc) VH: QVQLVESGGGVVQPGRSLRLSCAASGFTFSTYGMHWVRQAPGKGLEWVAIIWYDGSNYYYADSVKGRFTISRDNSKNTLYLQMNSLRAEDTAVYYCAREDRNDVFDIWGQGTMVTVSS VL: EIVLTQSPATLSLSPGERATLSCRASQSVSSFLAWYQQKPGQAPRLLIYDSSNRATGIPARFSGSGSGTDFTLTISSLEPEDFAVYYCQQLSNWPPITFGQGTRLEIK	0.000285
H4H6256P (antibody, human IgG4, V domains shown, H4H prefix = human IgG4 Fc) VH: QVQLVESGGGVVQPGRSLRLSCAASGFTFSAYGMHWVRQGPGKGLEWVAVIWYDGSNKYYADSVKGRFTISRDNSKNTLYLQMNRLRAEDTAVYYCARDDYGDSPGFDHWGQGTLVTVSS VL: EIVMTQSPATLSVSPGERATLSCRASQSVSSELAWYQQKPGQAPRLLLYGASTRATGIPARFSGSGSGTEFTLTISSLQSEDFAVYYCQQYSNWPPWTFGQGTKVEIK	0.000466
H4H2889N (antibody, human IgG4, V domains shown, H4H prefix = human IgG4 Fc) VH: QVQLQESGPGLVKPSETLSLTCTVSGGSISNSYWSWIRQPPGKGLEWIGYIYYSGNTNYNPSLKSRVTISVDTSKNQFSLKLSSVTAADTAVYYCARVNDYSNYDSYYYGMDVWGQGTTVTVSS VL: AIQMTQSPSSLSASVGDRVTITCRASQGIRNDLGWYQQKPGKAPKLLIYAASSLQSGVPSRFSGSGSGTDFTLTISSLQPEDFATYYCLQDYNYPPTFGQGTKVDIK	0.000422
